The reported measurements were obtained from ChEMBL document CHEMBL5053536.

Molecular target: Poly [ADP-ribose] polymerase 2 (Homo sapiens, UniProt Q9UGN5)
Sequence (Q9UGN5 whole entry): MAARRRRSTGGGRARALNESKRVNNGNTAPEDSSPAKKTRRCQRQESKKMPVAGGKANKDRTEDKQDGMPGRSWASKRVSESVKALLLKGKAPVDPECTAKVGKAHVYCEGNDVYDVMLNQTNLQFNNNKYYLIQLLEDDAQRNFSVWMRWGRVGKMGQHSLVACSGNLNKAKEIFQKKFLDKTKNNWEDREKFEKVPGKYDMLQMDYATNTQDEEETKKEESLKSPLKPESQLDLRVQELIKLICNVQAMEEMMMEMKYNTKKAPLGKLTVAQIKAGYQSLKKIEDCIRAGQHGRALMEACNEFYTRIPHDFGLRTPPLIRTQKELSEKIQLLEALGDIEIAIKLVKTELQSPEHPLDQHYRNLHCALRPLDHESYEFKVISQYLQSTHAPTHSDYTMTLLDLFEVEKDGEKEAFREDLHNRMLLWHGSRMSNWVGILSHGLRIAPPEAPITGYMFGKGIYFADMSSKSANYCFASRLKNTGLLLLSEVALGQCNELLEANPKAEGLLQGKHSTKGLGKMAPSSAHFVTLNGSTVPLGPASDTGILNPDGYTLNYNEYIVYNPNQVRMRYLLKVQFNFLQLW
Assay: Inhibition of recombinant human PARP2 using NAD+ as substrate incubated for 1 hr by ELISA
pIC50: −log10 of the molar value.
Property label: pIC50

>>> measured_number("CC(C)CN1CCN(C(=O)c2cc(Cn3c(=O)[nH]c(=O)c4ccccc43)ccc2F)C[C@@H]1C")
8.14
>>> measured_number("CC[C@H]1CN(C(=O)c2cc(Cn3c(=O)[nH]c(=O)c4ccccc43)ccc2F)CCN1C(C)=O")
7.85
>>> measured_number("CC[C@@H]1CN(C(=O)c2cc(Cn3c(=O)[nH]c(=O)c4ccccc43)ccc2F)CCN1C(=O)C1CC1")
8.10
>>> measured_number("C[C@H]1CN(C(=O)c2cc(Cn3c(=O)[nH]c(=O)c4ccccc43)ccc2F)CCN1CC(F)(F)F")
7.95
>>> measured_number("CC[C@H]1CN(C(=O)c2cc(Cn3c(=O)[nH]c(=O)c4ccccc43)ccc2F)CCN1C(=O)C1CC1")
7.99
>>> measured_number("CCC(=O)N1CCN(C(=O)c2cc(Cn3c(=O)[nH]c(=O)c4ccccc43)ccc2F)C[C@H]1CC")
7.86
>>> measured_number("CC[C@H]1CN(C(=O)c2cc(Cn3c(=O)[nH]c(=O)c4ccccc43)ccc2F)CCN1CC")
7.81
>>> measured_number("CC[C@H]1CN(C(=O)c2cc(Cn3c(=O)[nH]c(=O)c4ccccc43)ccc2F)CCN1C(=O)C(F)(F)F")
7.94
